# measurement notes: Inhibition of HIV1 reverse transcriptase 41L/67N/70R/210W/215Y mutant by heteropolymeric DNA polymerase assay
# Design: species or system Human immunodeficiency virus 1
measured property: pIC50
Worth noting: pIC50 values are minus log10 of concentrations stated in mol/L.

[
  {
    "compound": "Nc1nc(=O)c2ncn([C@H]3C=C[C@@H](COP(=O)(O)OP(=O)(O)OP(=O)(O)O)C3)c2[nH]1 [CARBOVIR 5'-TRIPHOSPHATE, (-)-]",
    "measured property": "pIC50",
    "numeric value": 6.05
  },
  {
    "compound": "Cc1cn([C@H]2C[C@H](N=[N+]=[N-])[C@@H](COP(=O)(O)OP(=O)(O)OP(=O)(O)O)O2)c(=O)[nH]c1=O [ZIDOVUDINE TRIPHOSPHATE]",
    "measured property": "pIC50",
    "numeric value": 6.85
  },
  {
    "compound": "C[C@H](Cn1cnc2c(N)ncnc21)OCP(=O)(O)OP(=O)(O)OP(=O)(O)O",
    "measured property": "pIC50",
    "numeric value": 5.85
  }
]

q: I would be grateful if you could share the reported pIC50 for Nc1nc2c(ncn2[C@H]2CO[C@@H](COP(=O)(O)OP(=O)(O)OP(=O)(O)O)O2)c(=O)[nH]1 .
a: 6.96

====

# measurement notes: Inhibition of HIV1 reverse transcriptase 41L/67N/70R/210W/215Y mutant in presence of 5'-A12-(GTCA)5-3' by heteropolymeric DNA polymerase assay
# Set-up: species or system Human immunodeficiency virus 1
measured property: pIC50
Worth noting: pIC50 values are minus log10 of concentrations stated in mol/L.

[
  {
    "mol": "Cc1cn([C@H]2CO[C@@H](COP(=O)(O)OP(=O)(O)OP(=O)(O)O)O2)c(=O)[nH]c1=O",
    "pIC50": 6.30
  }
]

Then there is this compound:
q: I would be grateful if you could share the reported pIC50 for C[C@H](Cn1cnc2c(N)ncnc21)OCP(=O)(O)OP(=O)(O)OP(=O)(O)O .
a: 4.89

====

# target of assay: Human immunodeficiency virus type 1 reverse transcriptase (Human immunodeficiency virus 1, UniProt Q72547)
# measurement notes: Inhibition of HIV1 LAI reverse transcriptase wild type in presence of 5 mM ATP by heteropolymeric DNA polymerase assay
measured property: pIC50
Worth noting: pIC50 values are minus log10 of concentrations stated in mol/L.

[
  {
    "molecule": "C[C@H](Cn1cnc2c(N)ncnc21)OCP(=O)(O)OP(=O)(O)OP(=O)(O)O",
    "pIC50": 5.89
  }
]

Then there is this molecule:
q: I would be grateful if you could share the reported pIC50 for Cc1cn([C@H]2CO[C@@H](COP(=O)(O)OP(=O)(O)OP(=O)(O)O)O2)c(=O)[nH]c1=O .
a: 6.72

====

# measurement notes: Inhibition of HIV1 reverse transcriptase 184V mutant in presence of 5 mM ATP by heteropolymeric DNA polymerase assay
# Design: species or system Human immunodeficiency virus 1
measured property: log10(IC50) (log10 of the value in nM)
Note the log scale: values are log10 of IC50 expressed in nM.

Below are worked cases with known answers.
[
  {
    "compound": "Cc1cn([C@H]2CO[C@@H](COP(=O)(O)OP(=O)(O)OP(=O)(O)O)O2)c(=O)[nH]c1=O",
    "measured property": "log10(IC50)",
    "numeric value": 2.70
  },
  {
    "compound": "Nc1nc(=O)c2ncn([C@H]3C=C[C@@H](COP(=O)(O)OP(=O)(O)OP(=O)(O)O)C3)c2[nH]1 [CARBOVIR 5'-TRIPHOSPHATE, (-)-]",
    "measured property": "log10(IC50)",
    "numeric value": 3.92
  },
  {
    "compound": "Nc1nc2c(ncn2[C@H]2CO[C@@H](COP(=O)(O)OP(=O)(O)OP(=O)(O)O)O2)c(=O)[nH]1",
    "measured property": "log10(IC50)",
    "numeric value": 2.30
  },
  {
    "compound": "C[C@H](Cn1cnc2c(N)ncnc21)OCP(=O)(O)OP(=O)(O)OP(=O)(O)O",
    "measured property": "log10(IC50)",
    "numeric value": 3.36
  }
]

Then there is this compound:
q: I would be grateful if you could share the reported log10(IC50) for Cc1cn([C@H]2C[C@H](N=[N+]=[N-])[C@@H](COP(=O)(O)OP(=O)(O)OP(=O)(O)O)O2)c(=O)[nH]c1=O [ZIDOVUDINE TRIPHOSPHATE] .
a: 2.72

====

# measurement notes: Inhibition of HIV1 reverse transcriptase 75I/77L/116Y/151M mutant in presence of 5 mM ATP by heteropolymeric DNA polymerase assay
# Set-up: species or system Human immunodeficiency virus 1
measured property: IC50 (µM)
Could you give me the number in µM? Just the number is fine.

Below are worked cases with known answers.
[
  {
    "molecule": "Nc1nc(=O)c2ncn([C@H]3C=C[C@@H](COP(=O)(O)OP(=O)(O)OP(=O)(O)O)C3)c2[nH]1 [CARBOVIR 5'-TRIPHOSPHATE, (-)-]",
    "measured property": "IC50",
    "numeric value": 11
  },
  {
    "molecule": "C[C@H](Cn1cnc2c(N)ncnc21)OCP(=O)(O)OP(=O)(O)OP(=O)(O)O",
    "measured property": "IC50",
    "numeric value": 11
  }
]

Then there is this molecule:
q: I would be grateful if you could share the reported IC50 for Cc1cn([C@H]2CO[C@@H](COP(=O)(O)OP(=O)(O)OP(=O)(O)O)O2)c(=O)[nH]c1=O .
a: 6.1

====

Reported pIC50 values for a set of compounds
# target of assay: Human immunodeficiency virus type 1 reverse transcriptase (Human immunodeficiency virus 1)
# measurement notes: Inhibition of HIV1 LAI reverse transcriptase wild type in presence of 5 mM ATP by heteropolymeric DNA polymerase assay
Worth noting: pIC50 values are minus log10 of concentrations stated in mol/L.

[
  {
    "compound": "Cc1cn([C@H]2C[C@H](N=[N+]=[N-])[C@@H](COP(=O)(O)OP(=O)(O)OP(=O)(O)O)O2)c(=O)[nH]c1=O [ZIDOVUDINE TRIPHOSPHATE]",
    "target of assay": "Human immunodeficiency virus type 1 reverse transcriptase (Human immunodeficiency virus 1)",
    "pIC50": 6.52
  },
  {
    "compound": "Nc1nc(=O)c2ncn([C@H]3C=C[C@@H](COP(=O)(O)OP(=O)(O)OP(=O)(O)O)C3)c2[nH]1 [CARBOVIR 5'-TRIPHOSPHATE, (-)-]",
    "target of assay": "Human immunodeficiency virus type 1 reverse transcriptase (Human immunodeficiency virus 1)",
    "pIC50": 6.05
  }
]

q: I would be grateful if you could share the reported pIC50 for Nc1nc2c(ncn2[C@H]2CO[C@@H](COP(=O)(O)OP(=O)(O)OP(=O)(O)O)O2)c(=O)[nH]1 .
a: 6.70
